# Test system: MCF7
# ASSAY_PROTOCOL: Antiproliferative activity against human MCF7 cells assessed as cell growth inhibition
# Type: functional, cell-based
OUTCOME_MEASURE: IC50 (nM)
Answers are plain numbers, in nM.

# batch: return IC50 for each of the 5 compounds below
1. CC/C(=C(/c1ccc(/C=C/C(=O)O)cc1)c1cc2ccccc2[nH]1)c1ccccc1OC(F)(F)F
2. CC/C(=C(/c1ccc(/C=C/C(=O)O)cc1)c1cc2ccccc2[nH]1)c1ccc(Cl)cc1C#N
3. CC/C(=C(/c1ccc(/C=C/C(=O)O)cc1)c1cc2ccccc2[nH]1)c1cccc(OC(F)(F)F)c1
4. CC/C(=C(/c1ccc(/C=C/C(=O)O)cc1)c1cc2ccccc2[nH]1)c1ccccc1
5. CC/C(=C(/c1ccc(/C=C/C(=O)O)cc1)c1cc2ccccc2[nH]1)c1cc(Cl)ccc1Cl

// result
[206, 14, 282, 108, 71]
